Below, each of the molecules is paired with its reported Cathepsin V Ki′ (µM) value.
# target: Cathepsin V (Homo sapiens)
# Construct: made in house; host or cells: Pichia pastoris
# Sequence (O60911 114-334): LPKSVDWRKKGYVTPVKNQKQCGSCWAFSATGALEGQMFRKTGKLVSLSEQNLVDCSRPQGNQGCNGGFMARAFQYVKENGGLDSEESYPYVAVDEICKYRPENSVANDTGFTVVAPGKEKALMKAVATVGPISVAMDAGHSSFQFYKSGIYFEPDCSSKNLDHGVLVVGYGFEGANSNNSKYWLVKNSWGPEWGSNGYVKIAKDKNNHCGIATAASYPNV
# experiment.notes: Determination of Ki values and mode of inhibition
# Format: biochemical
# reported.conditions: mean ± SD (n = 2)
Marks after values point to notes of the source that are not given here.

Consider the worked cases shown below.
molecule: O=C(NCC1CCN(C(=O)Oc2ccccc2)CC1)NC(c1ccccc1)c1ccccc1
target: Cathepsin V (Homo sapiens)
Cathepsin V Ki′ (µM): 155.8 ± 3.4^e µM
//
molecule: O=C(NCc1ccc(F)cc1)NCC1CCN(C(=O)Oc2ccccc2)CC1
target: Cathepsin V (Homo sapiens)
Cathepsin V Ki′ (µM): 612.5 ± 23.9^e µM
//
molecule: O=C(c1ccccc1OCc1ccccc1)C1OC1c1csc(-c2ccccc2)n1 (stereo not shown)
target: Cathepsin V (Homo sapiens)
Cathepsin V Ki′ (µM): 21.2 ± 2.0^f µM

Consider the additional molecule presented here.
Exercise: Need Cathepsin V Ki′ (µM) of Cc1cc(OCc2ccccc2)c(C(=O)C2OC2c2cc3ccccc3o2)cc1C (stereo not shown) , thanks.
Solution: 68.3 ± 4.6 ^g µM
